- MEASUREMENT_TARGET: isolated recombinant JAK1 kinase domain (Homo sapiens (Human), UniProt P23458)
- Sequence (P23458 875-1153): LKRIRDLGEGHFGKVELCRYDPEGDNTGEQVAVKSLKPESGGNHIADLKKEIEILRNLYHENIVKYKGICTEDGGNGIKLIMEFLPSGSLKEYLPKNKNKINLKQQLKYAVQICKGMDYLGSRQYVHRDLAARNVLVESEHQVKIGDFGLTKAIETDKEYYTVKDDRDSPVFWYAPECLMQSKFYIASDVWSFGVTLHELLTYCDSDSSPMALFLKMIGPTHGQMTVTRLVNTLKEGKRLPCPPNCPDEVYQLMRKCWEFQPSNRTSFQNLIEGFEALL
- EXPERIMENTAL_PROTOCOL: JAK1 enzyme assay (Caliper LabChip, Ki)
- Assay type: biochemical
OUTCOME_MEASURE: Ki (nM)
Numbers only, in nM.

Solved cases (3 shown):
>>> result_value("COc1cc2cnsc2cc1-c1n[nH]cc1NC(=O)c1cnn2cccnc12")
0.16
>>> result_value("CC1Sc2cc(-c3n[nH]cc3NC(=O)c3cnn4cccnc34)c(OC(F)F)cc2NC1=O (stereo not shown) [Example 39]")
0.06
>>> result_value("Cn1cc(NC(=O)c2cnn3cccnc23)c(-c2cc3sc(C(=O)N4CCNCC4)cc3cc2OC(F)F)n1")
4.03

I'd like to know its Ki. The compound in question is CC(C)OC(=O)n1cc(NC(=O)c2cnn3cccnc23)c(-c2cc3c(cc2OC(F)F)NCCO3)n1
0.4

* * *

- MEASUREMENT_TARGET: isolated recombinant JAK1 kinase domain (Homo sapiens (Human), UniProt P23458)
- EXPERIMENTAL_PROTOCOL: JAK1 enzyme assay (Caliper LabChip, Ki)
- Assay type: biochemical
Field: Ki. Provide a value for each of the molecules that follow.
One number for each entry, in nM.

Solved cases (3 shown):
>>> result_value("CN1CCC[C@@H]1Cn1cc(NC(=O)c2cnn3cccnc23)c(-c2cc3cn[nH]c3cc2OC(F)F)n1")
0.28
>>> result_value("COC(=O)c1cc2cc(OC(F)F)c(-c3n[nH]cc3NC(=O)c3cnn4cccnc34)cc2s1")
0.17
>>> result_value("CN(C)CCn1cc(NC(=O)c2cnn3cccnc23)c(-c2cc3c(cc2OC(F)F)NCCS3)n1")
0.23

Hello, I would appreciate it if you could give Ki for each entry below.
1. COC(=O)Cn1cc(NC(=O)c2cnn3cccnc23)c(-c2cc3sccc3cc2OC(F)F)n1
2. C[C@@H]1CNc2cc(OC(F)F)c(-c3n[nH]cc3NC(=O)c3cnn4cccnc34)cc2O1
3. N#CCn1cc(NC(=O)c2cnn3cccnc23)c(-c2cc3c(cc2OC(F)F)NCCO3)n1
4. O=C(Nc1cn(C2CCOC2=O)nc1-c1cc2c(cc1OC(F)F)NCCS2)c1cnn2cccnc12 (single isomer, unassigned) [Example 141]
5. O=C(Nc1c[nH]nc1-c1cc2c(cc1OC(F)F)CCCO2)c1cnn2cccnc12
6. Cn1nnnc1Cn1cc(NC(=O)c2cnn3cccnc23)c(-c2cc3c(cc2OC(F)F)NCCS3)n1
7. O=C(Nc1cn(CC(=O)N2CCC(O)CC2)nc1-c1cc2c(cc1OC(F)F)NCCO2)c1cnn2cccnc12

1. 0.32
2. 0.68
3. 0.14
4. 0.17
5. 0.32
6. 0.12
7. 0.3

Hello, I would appreciate it if you could give Ki for each entry below.
1. Cn1cc(NC(=O)c2cnn3cccnc23)c(-c2cc3ccccc3cc2OC(F)F)n1
2. Cn1nnnc1Cn1cc(NC(=O)c2cnn3cccnc23)c(-c2cc3c(cc2OC(F)F)NCCO3)n1
3. CC1CNc2cc(OC(F)F)c(-c3nn(CC(=O)N(C)C)cc3NC(=O)c3cnn4cccnc34)cc2S1 (single isomer, unassigned) [Example 105]
4. CN1CCC(Cn2cc(NC(=O)c3cnn4cccnc34)c(-c3cc4ccccc4cc3OC(F)F)n2)CC1
5. CC1CSc2cc(-c3nn(CC(=O)N4CC=CCC4)cc3NC(=O)c3cnn4cccnc34)c(OC(F)F)cc2N1 (single isomer, unassigned) [Example 112]
6. COC(=O)Cn1cc(NC(=O)c2cnn3cccnc23)c(-c2cc3sc(C(N)=O)cc3cc2OC(F)F)n1

0.22
0.19
0.19
1.53
0.15
0.22

Hello, I would appreciate it if you could give Ki for each entry below.
1. Cc1cc2cc(OC(F)F)c(-c3n[nH]cc3NC(=O)c3cnn4cccnc34)cc2s1
2. C[C@H]1CNc2cc(OC(F)F)c(-c3n[nH]cc3NC(=O)c3cnn4cccnc34)cc2O1
3. Cn1nnc(Cn2cc(NC(=O)c3cnn4cccnc34)c(-c3cc4c(cc3OC(F)F)NCCO4)n2)n1

1. 0.11
2. 0.51
3. 0.23

Hello, I would appreciate it if you could give Ki for each entry below.
1. O=C(Nc1cn(C2CCOC2=O)nc1-c1cc2c(cc1OC(F)F)NCCO2)c1cnn2cccnc12 (single isomer, unassigned)
2. O=C(Nc1cn(CC(=O)N2CC=CCC2)nc1-c1cc2c(cc1OC(F)F)NCCO2)c1cnn2cccnc12
3. CC1CNc2cc(OC(F)F)c(-c3n[nH]cc3NC(=O)c3cnn4cccnc34)cc2S1 (single isomer, unassigned) [Example 93]

[0.6, 0.23, 0.07]

Hello, I would appreciate it if you could give Ki for each entry below.
1. O=C(O)Cn1cc(NC(=O)c2cnn3cccnc23)c(-c2cc3ccccc3cc2OC(F)F)n1
2. CN(C)C(=O)CN1CCN(C(=O)Cn2cc(NC(=O)c3cnn4cccnc34)c(-c3cc4ccccc4cc3OC(F)F)n2)CC1

0.64
0.44

Hello, I would appreciate it if you could give Ki for each entry below.
1. CNCCn1cc(NC(=O)c2cnn3cccnc23)c(-c2cc3c(cc2OC(F)F)NCCS3)n1
2. CC1CNc2cc(OC(F)F)c(-c3n[nH]cc3NC(=O)c3cnn4cccnc34)cc2S1 (centres unmarked) [Example 37]
3. CNCCn1cc(NC(=O)c2cnn3cccnc23)c(-c2cc3c(cc2OC(F)F)NC(=O)CS3)n1
4. O=C(Nc1c[nH]nc1-c1cc2cnsc2cc1OC(F)F)c1cnn2cccnc12
5. CN(C)CCn1cc(NC(=O)c2cnn3cccnc23)c(-c2cc3c(cc2OC(F)F)NC(=O)CS3)n1

1. 0.12
2. 0.07
3. 0.18
4. 0.15
5. 0.23

The measurements presented in this section are drawn from patent US11155557B2.
